molecular target: Cys12 of the KRAS 4B G12C protein (Homo sapiens, UniProt P01116, G12C); construct: This protein contained 188 amino acids in total, including an N-terminal 6-Histidine tag; made in house; host or cells: E. coli BL21; assay: In vitro covalent adduct formation (CAF) assay, LC-MS intact mass; assay type: binding; conditions: after 60 min
Kindly supply the reported CAF (% binding after 60 min) values for the records listed here.
Please reply with the bare figure in % and do not write the unit itself.

Tell me the measured CAF (% binding after 60 min) of C=CC(=O)N1[C@H](C)CN(c2nc(=O)n3c4c(c(-c5ccc(F)cc5F)c(C(F)(F)F)cc24)SC[C@@H](OCOC)C3)C[C@@H]1C , please. 95

Tell me the measured CAF (% binding after 60 min) of C=CC(=O)N1[C@H](C)CN(c2nc(=O)n3c4c(c(-c5ccc(F)c(Cl)c5)c(C(F)(F)F)cc24)SC[C@H](OCCOC)C3)C[C@@H]1C , please. 96

Tell me the measured CAF (% binding after 60 min) of C=CC(=O)N1[C@H](C)CN(c2nc(=O)n3c4c(c(-c5ccc(F)cc5F)c(C(F)(F)F)cc24)SC[C@H](N(C)C)C3)C[C@@H]1C , please. 84

---

molecular target: K-Ras G12C (Homo sapiens, UniProt P01116, G12C); construct: This protein contained 188 amino acids in total, including an N-terminal 6-Histidine tag; made in house; host or cells: E. coli BL21; test: CAF assay (% CAF; method in Example 7, not in this part); type: binding; settings: 10 uM, 1 h; Table 3
Measured Metric: % CAF @ 10 uM, 1h (%)
Please reply with the bare figure in % and do not write the unit itself.

Quick check: % CAF @ 10 uM, 1h on K-Ras G12C (Homo sapiens, UniProt P01116, G12C), item C=CC(=O)N1CCN(c2nc(=O)n3c4c(c(-c5cccc6c5CC(=O)N6)c(Cl)cc24)SCC3)[C@@H](C)C1 ? 18.9

Quick check: % CAF @ 10 uM, 1h on K-Ras G12C (Homo sapiens, UniProt P01116, G12C), item C=CC(=O)N1CCN(c2nc(=O)n3c4c(c(-c5ccc(F)cc5F)c(Cl)cc24)SCC3CN2CCN(C)CC2)[C@@H](C)C1 (stereo partly drawn) ? 33.1

Quick check: % CAF @ 10 uM, 1h on K-Ras G12C (Homo sapiens, UniProt P01116, G12C), item C=CC(=O)N1CCN(c2nc(=O)n3c4c(c(-c5cc(F)cc(Cl)c5)c(Cl)cc24)SCC3)[C@@H](C)C1 ? 73

Quick check: % CAF @ 10 uM, 1h on K-Ras G12C (Homo sapiens, UniProt P01116, G12C), item C=CC(=O)N1CCN(c2nc(=O)n3c4c(c(-c5c(F)cc(Cl)cc5F)c(Cl)cc24)SCC3)[C@@H](C)C1 ? 45.2

Quick check: % CAF @ 10 uM, 1h on K-Ras G12C (Homo sapiens, UniProt P01116, G12C), item C=CC(=O)N1CCN(c2nc(=O)n3c4c(c(-c5ccc(F)cc5F)c(Br)cc24)SCC3)[C@@H](C)C1 ? 94.7

Quick check: % CAF @ 10 uM, 1h on K-Ras G12C (Homo sapiens, UniProt P01116, G12C), item C=CC(=O)N1CCN(c2nc(=O)n3c4c(c(-c5ccccc5F)c(Cl)cc24)SCC3)[C@@H](C)C1 (atropisomer, axis not shown) [Example 124] ? 96

---

biological target: K-Ras G12C (Homo sapiens, UniProt P01116, G12C); construct: This protein contained 188 amino acids in total, including an N-terminal 6-Histidine tag; made in house; host or cells: E. coli BL21; experiment: CAF assay (% CAF; method in Example 7, not in this part); assay type: binding; conditions: 10 uM compound, 1 h incubation
Measured Metric: % CAF @ 10 uM, 1h (%)
Please reply with the bare figure in % and do not write the unit itself.

Tell me the measured % CAF @ 10 uM, 1h of C=CC(=O)N1[C@H](C)CN(c2nc(=O)n3c4c(c(-c5cc(Cl)c(F)cc5F)c(C(F)(F)F)cc24)SC[C@@H]3COC)C[C@@H]1C (atropisomer, axis not shown) [Example 564] , please. 80.8

Tell me the measured % CAF @ 10 uM, 1h of C=CC(=O)N1CCN(c2nc(=O)n3c4c(c(-c5ccc(F)cc5F)c(Cl)cc24)SC[C@H](OC)C3)CC1 , please. 86

Tell me the measured % CAF @ 10 uM, 1h of C=CC(=O)N1CCN(c2nc(=O)n3c4c(c(-c5ccc(F)cc5F)c(C(F)(F)F)cc24)SC[C@@H]3COC)[C@@H](C)C1 , please. 95.8

Tell me the measured % CAF @ 10 uM, 1h of C=CC(=O)N1[C@H](C)CN(c2nc(=O)n3c4c(c(-c5cc(Cl)c(F)cc5F)c(C(F)(F)F)cc24)SC[C@@H]3COCOC)C[C@@H]1C , please. 64.4

Tell me the measured % CAF @ 10 uM, 1h of C=CC(=O)N1[C@H](C)CN(c2nc(=O)n3c4c(c(-c5cc(F)c(F)cc5F)c(Cl)cc24)SC[C@@H]3COC)C[C@@H]1C , please. 17.5

Tell me the measured % CAF @ 10 uM, 1h of C=CC(=O)N1CCN(c2nc(=O)n3c4c(c(-c5ccc(F)c6[nH]ncc56)c(Cl)cc24)SCC3)[C@@H](C)C1 , please. 54.3

Tell me the measured % CAF @ 10 uM, 1h of CC#CC(=O)N1C2CC(=O)CC1CN(c1nc(=O)n3c4c(c(-c5ccc(F)cc5F)c(C(F)(F)F)cc14)SCC3)C2 , please. 37

Tell me the measured % CAF @ 10 uM, 1h of C=CC(=O)N1CCN(c2nc(=O)n3c4c(c(-c5cc(Cl)c(F)cc5F)c(C(F)(F)F)cc24)SC[C@@H]3COCOC)[C@@H](C)C1 (atropisomer, axis not shown) [Example 553] , please. 37

Tell me the measured % CAF @ 10 uM, 1h of C=CC(=O)N1CCN(c2nc(=O)n3c4c(c(-c5ccc(F)cc5F)c(C(F)(F)F)cc24)SC[C@@H](OC)C3)[C@@H](C)C1 , please. 95

Tell me the measured % CAF @ 10 uM, 1h of C=CC(=O)N1C[C@H](C)N(c2nc(=O)n3c4c(c(-c5ccc(F)cc5F)c(Cl)cc24)SC[C@@H]3CN2CCn3c(nnc3C(F)(F)F)C2)C[C@H]1C , please. 68.6

Tell me the measured % CAF @ 10 uM, 1h of C=CC(=O)N1CCN(c2nc(=O)n3c4c(c(-c5ccc(F)cc5)c(Cl)cc24)SC[C@@H](OC)C3)CC1 , please. 97

Tell me the measured % CAF @ 10 uM, 1h of C=CC(=O)N1CCN(c2nc(=O)n3c4c(c(-c5ccc(F)cc5F)c(C(F)(F)F)cc24)SC[C@@H]3CC2CCOCC2)[C@@H](C)C1 , please. 95.7

---

biological target: K-Ras G12C (Homo sapiens, UniProt P01116, G12C); construct: This protein contained 188 amino acids in total, including an N-terminal 6-Histidine tag; made in house; host or cells: E. coli BL21; assay: CAF assay (% CAF; method in Example 7, not in this part); format: binding; details: 10 uM compound, 1 h incubation
Kindly supply the reported % CAF @ 10 uM, 1h values for the records listed here.
Please reply with the bare figure in % and do not write the unit itself.

Quick check: % CAF @ 10 uM, 1h on K-Ras G12C (Homo sapiens, UniProt P01116, G12C), item C=CC(=O)N1[C@H](C)CN(c2nc(=O)n3c4c(c(-c5cc(Cl)c(F)cc5F)c(C(F)(F)F)cc24)SC[C@@H]3CO)C[C@@H]1C ? 52.3

Quick check: % CAF @ 10 uM, 1h on K-Ras G12C (Homo sapiens, UniProt P01116, G12C), item C=CC(=O)N1C2CN(c3nc(=O)n4c5c(c(-c6ccc(F)cc6F)c(C(F)(F)F)cc35)SCC4)CC1CC1(COC1)C2 ? 2

Quick check: % CAF @ 10 uM, 1h on K-Ras G12C (Homo sapiens, UniProt P01116, G12C), item C=CC(=O)N1[C@H](C)CN(c2nc(=O)n3c4c(c(-c5ccc(F)cc5F)c(C(F)(F)F)cc24)SC[C@@H]3CN2C[C@@H]3C[C@H]2CO3)C[C@@H]1C ? 95.6

Quick check: % CAF @ 10 uM, 1h on K-Ras G12C (Homo sapiens, UniProt P01116, G12C), item C=CC(=O)N1CCN(c2nc(=O)n3c4c(c(-c5cc(Cl)c(F)cc5F)c(C(F)(F)F)cc24)SC[C@@H]3COC)CC1 ? 93.6

Quick check: % CAF @ 10 uM, 1h on K-Ras G12C (Homo sapiens, UniProt P01116, G12C), item C=CC(=O)N1CCN(c2nc(=O)n3c4c(c(-c5ccc(F)cc5F)c(Cl)cc24)SC[C@H](OC)C3)[C@@H](C)C1 ? 96

Quick check: % CAF @ 10 uM, 1h on K-Ras G12C (Homo sapiens, UniProt P01116, G12C), item C=CC(=O)N1CCN(c2nc(=O)n3c4c(c(-c5ccc(F)cc5F)c(Cl)cc24)SC[C@@H]3CC2CCN(CC)CC2)[C@@H](C)C1 ? 86.6

Quick check: % CAF @ 10 uM, 1h on K-Ras G12C (Homo sapiens, UniProt P01116, G12C), item C=CC(=O)N1[C@H](C)CN(c2nc(=O)n3c4c(c(-c5ccc(F)cc5F)c(C(F)(F)F)cc24)SC[C@H](OC)C3)C[C@@H]1C ? 95

Quick check: % CAF @ 10 uM, 1h on K-Ras G12C (Homo sapiens, UniProt P01116, G12C), item C=CC(=O)N1[C@H](C)CN(c2nc(=O)n3c4c(c(-c5ccc(F)cc5F)c(C(F)(F)F)cc24)SC[C@@H]3COC)C[C@@H]1C (atropisomer, axis not shown) [Example 546] ? 94.3

Quick check: % CAF @ 10 uM, 1h on K-Ras G12C (Homo sapiens, UniProt P01116, G12C), item C=CC(=O)N1CCN(c2nc(=O)n3c4c(c(-c5cc(Cl)c(F)cc5F)c(Cl)cc24)SC[C@@H](OC)C3)[C@@H](C)C1 ? 95

Quick check: % CAF @ 10 uM, 1h on K-Ras G12C (Homo sapiens, UniProt P01116, G12C), item C=CC(=O)N1CCN(c2nc(=O)n3c4c(c(-c5ccc(F)cc5F)c(Cl)cc24)SC[C@@H](OC)C3)[C@@H](C)C1 ? 96

Quick check: % CAF @ 10 uM, 1h on K-Ras G12C (Homo sapiens, UniProt P01116, G12C), item C=CC(=O)N1CCN(c2nc(=O)n3c4c(c(-c5cc(Cl)c(F)cc5F)c(Cl)cc24)SC[C@H](OC)C3)[C@@H](C)C1 ? 96

Quick check: % CAF @ 10 uM, 1h on K-Ras G12C (Homo sapiens, UniProt P01116, G12C), item C=CC(=O)N1C[C@H](C)N(c2nc(=O)n3c4c(c(-c5ccc(F)cc5F)c(Cl)cc24)SC[C@@H]3COC)C[C@H]1C ? 68.7
